tested on: porcine kidney-derived LLC-PK1 cells; assay: Protective effect against oxidized LDL-induced injury of porcine kidney-derived LLC-PK1 cells (2); type: cell-based; details: Sus scrofa, LLC-PK1, 6 h, 10 μM; compound added 16 hours before adding oxidized LDL; mean ± standard deviation; read-out: Cytoprotection rate (%)
Below: a set of entries, each annotated with reported inhibition at 10 µM.
Respond numerically; units are % and should not be typed.

> print(dat)
                                   compound  observed.measurement
1  CC1(COc2ccc(CNNC(=N)N)cc2)Cc2c(cc(C(C)(C)C)c(O)c2C(C)(C)C)O1 (stereo not shown)                    40
2  CC1(C(=O)N2CCCC2)Cc2c(cc(C(C)(C)C)c(O)c2C(C)(C)C)O1 (stereo not shown)                   104
3  CC1(CC#N)Cc2c(cc(C(C)(C)C)c(O)c2C(C)(C)C)O1 (stereo not shown)                   106

Given CC1(CNNC(=N)N)Cc2c(cc(C(C)(C)C)c(O)c2C(C)(C)C)O1 (stereo not shown) , state its recorded inhibition at 10 µM.
104

Sample CC1(C=CCCCC(=O)O)Cc2c(cc(C(C)(C)C)c(O)c2C(C)(C)C)O1 (stereo not shown) — what was its inhibition at 10 µM?
35.8

Please give the measured inhibition at 10 µM for this compound: CC1(CCCCCC(=O)O)Cc2c(cc(C(C)(C)C)c(O)c2C(C)(C)C)O1 (stereo not shown)
67.5

Fill blank: measured inhibition at 10 µM of the compound CCOC(=O)/C=C/C1(C)Cc2c(cc(C(C)(C)C)c(O)c2C(C)(C)C)O1 (stereo not shown) is ____.
99.8

# query: inhibition at 10 µM of entry `CC(C)(C)c1cc2c(c(C(C)(C)C)c1O)CC1(CCCCC1)O2`
103

Given the compound CN(C)CC1(C)Cc2c(cc(C(C)(C)C)c(O)c2C(C)(C)C)S1 (stereo not shown) , what is its reported inhibition at 10 µM?
101

Item under review: CC1(CN)Cc2c(cc(C(C)(C)C)c(O)c2C(C)(C)C)O1 (stereo not shown) . Reported inhibition at 10 µM?
101

Using the record for CCOC(=O)CCC1(C)Cc2c(cc(C(C)(C)C)c(O)c2C(C)(C)C)O1 (stereo not shown) , report its inhibition at 10 µM.
13.8

Fill in the blank: the reported inhibition at 10 µM of CC1(CNC(=N)NN)Cc2c(cc(C(C)(C)C)c(O)c2C(C)(C)C)O1 (stereo not shown) is ____.
101

Which inhibition at 10 µM value is on record for CC1(CO)Cc2c(cc(C(C)(C)C)c(O)c2C(C)(C)C)S1 (stereo not shown) ?
100

Look at this compound and give its reported inhibition at 10 µM. `CC(C)(C)c1cc2c(c(C(C)(C)C)c1O)CC1(CCOCC1)S2`
100

Query: inhibition at 10 µM; subject: COC(=O)C1(C)Cc2c(cc(C(C)(C)C)c(O)c2C(C)(C)C)O1 (stereo not shown)
99.7

# get_value(readout='inhibition at 10 µM', item= `CC(C)(C)c1cc2c(c(C(C)(C)C)c1O)CC1(CCSCC1)O2` )
102

Entry `CC(C)(C)c1cc2c(c(C(C)(C)C)c1O)CC1(CCCCCCC1)O2` has what inhibition at 10 µM?
16

Record request: inhibition at 10 µM value, item CC1(CNC(N)=S)Cc2c(cc(C(C)(C)C)c(O)c2C(C)(C)C)O1 (stereo not shown)
102

Consider the compound CC1(C(=O)O)Cc2c(cc(C(C)(C)C)c(O)c2C(C)(C)C)O1 (stereo not shown) and give its measured inhibition at 10 µM.
95.9

Source: patent US6133279A
